STUDY_TARGET: Renin (Homo sapiens, UniProt P00797)
Sequence (P00797 whole entry): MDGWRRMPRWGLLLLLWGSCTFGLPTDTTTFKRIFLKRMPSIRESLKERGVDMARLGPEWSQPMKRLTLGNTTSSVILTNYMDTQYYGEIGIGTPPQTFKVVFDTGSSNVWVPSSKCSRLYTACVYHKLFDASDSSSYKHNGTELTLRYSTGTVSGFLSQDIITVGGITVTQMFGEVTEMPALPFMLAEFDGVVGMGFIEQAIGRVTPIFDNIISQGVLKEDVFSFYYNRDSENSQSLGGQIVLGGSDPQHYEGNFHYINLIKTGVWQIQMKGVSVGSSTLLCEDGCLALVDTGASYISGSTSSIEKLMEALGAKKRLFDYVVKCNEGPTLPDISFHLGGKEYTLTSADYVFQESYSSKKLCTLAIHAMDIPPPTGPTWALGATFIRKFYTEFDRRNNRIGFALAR
TEST_NAME: The compound was tested in vitro for inhibition of human plasma renin.
pIC50: −log10 of the molar value.
PROPERTY_NAME: pIC50

A selection of reference data follows.
| SMILES_DATA | STUDY_TARGET | pIC50 |
| --- | --- | --- |
| CN(C)CCn1nnnc1SC[C@H](O)[C@H](CC1CCCCC1)NC(=O)[C@H](Cc1cnc[nH]1)NC(=O)[C@H](Cc1ccccc1)NC(=O)OC(C)(C)C | Renin (Homo sapiens, UniProt P00797) | 6.84 |
| CCOC(=O)Cn1nnnc1SC[C@H](O)[C@H](CC1CCCCC1)NC(=O)[C@H](Cc1cnc[nH]1)NC(=O)[C@H](Cc1ccccc1)NC(=O)OC(C)(C)C | Renin (Homo sapiens, UniProt P00797) | 6.68 |
| CN1CCN(C(=O)Cn2nnnc2SC[C@H](O)[C@H](CC2CCCCC2)NC(=O)[C@H](Cc2c[nH]cn2)NC(=O)[C@H](Cc2ccccc2)NC(=O)OC(C)(C)C)CC1 | Renin (Homo sapiens, UniProt P00797) | 6.44 |
| CC(C)(C)OC(=O)N[C@@H](Cc1ccccc1)C(=O)N[C@@H](Cc1cnc[nH]1)C(=O)N[C@@H](CC1CCCCC1)[C@@H](O)CSc1nnnn1CC(=O)NCCN1CCOCC1 | Renin (Homo sapiens, UniProt P00797) | 6.50 |
| CC(C)(C)OC(=O)N[C@@H](Cc1ccccc1)C(=O)N[C@@H](Cc1c[nH]cn1)C(=O)N[C@@H](CC1CCCCC1)[C@@H](O)CSc1nnc(Nc2ccccc2)s1 | Renin (Homo sapiens, UniProt P00797) | 5.48 |
| Cn1nc(C(F)(F)F)nc1SC[C@H](O)[C@H](CC1CCCCC1)NC(=O)[C@H](Cc1c[nH]cn1)NC(=O)[C@H](Cc1ccccc1)NC(=O)OC(C)(C)C | Renin (Homo sapiens, UniProt P00797) | 6.41 |

1: C=CCn1c(SC[C@H](O)[C@H](CC2CCCCC2)NC(=O)[C@H](Cc2c[nH]cn2)NC(=O)[C@H](Cc2ccccc2)NC(=O)OC(C)(C)C)nnc1C(F)(F)F
2: Cn1cnnc1SC[C@H](O)[C@H](CC1CCCCC1)NC(=O)[C@H](Cc1c[nH]cn1)NC(=O)[C@H](Cc1ccccc1)NC(=O)OC(C)(C)C
Query: Larger number for pIC50: 1 , or 2 ? Choose, then provide that item's label.
Result: 2
(2: 7.09, 1: 6.69)

P: CC(C)(C)OC(=O)N[C@@H](Cc1ccccc1)C(=O)N[C@@H](Cc1c[nH]cn1)C(=O)N[C@@H](CC1CCCCC1)[C@@H](O)CSc1ncc2ccccn12
Q: CC(C)(C)OC(=O)N[C@@H](Cc1ccccc1)C(=O)N[C@@H](Cc1c[nH]cn1)C(=O)N[C@@H](CC1CCCCC1)[C@@H](O)CSC1CCCCC1
Query: Please indicate which item has the smaller measured pIC50: P versus Q Choose, then provide that item's label.
Result: P

1: C[n+]1ccc(CCn2nnnc2SC[C@H](O)[C@H](CC2CCCCC2)NC(=O)[C@H](Cc2c[nH]cn2)NC(=O)[C@H](Cc2ccccc2)NC(=O)OC(C)(C)C)cc1
2: CC(C)(C)OC(=O)N[C@@H](Cc1ccccc1)C(=O)N[C@@H](Cc1cnc[nH]1)C(=O)N[C@@H](CC1CCCCC1)[C@@H](O)CSc1nnnn1CC(=O)O
Query: Larger number for pIC50: 1 , or 2 ? Choose, then provide that item's label.
Result: 2
(2: 6.40, 1: 6.17)
